- Assay target: T1, IHF from Klebsiella pneumoniae (Kp) (Klebsiella pneumoniae)
- T1 construct: Recombinant, His-tagged, made in HEK293 cells; also called IHF (Kp)
- T1 sequence (A6TAI1 whole entry, chain 1 of 2): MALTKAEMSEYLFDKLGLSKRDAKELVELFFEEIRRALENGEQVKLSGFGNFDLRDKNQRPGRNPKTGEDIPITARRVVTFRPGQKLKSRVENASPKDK
- T1 sequence (A6T704 whole entry, chain 2 of 2, further chain): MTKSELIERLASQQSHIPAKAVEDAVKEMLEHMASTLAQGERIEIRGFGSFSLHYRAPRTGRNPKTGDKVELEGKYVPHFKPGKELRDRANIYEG
- Measurement description: ELISA
Quick reference: OD of the listed items.
Only the number, expressed in OD, is required.

Binder	Units text	Endpoint result
TRL1087 (antibody, V domains shown) VH: QVQLLESGPGLVRPSDTLSLTCTFSADLSTNAYWTWIRQPPGKGLEWIGYMSHSGGRDYNPSFNRRVTISVDTSKNQVFLRLTSVTSADTAVYFCVREVGSYYDYWGQGILVTVSS VL: DIEMTQSPSSLSASVGDRITITCRASQGISTWLAWYQQKPGKAPKSLIFSTSSLHSGVPSKFSGSGSGTDFTLTITNLQPEDFATYYCQQKWETPYSFGQGTKLDMIR	OD	0.06
TRL1218 (antibody, V domains shown) VH: QVQLLESGADMVQPGRSLRLSCAASGFNFRTYAMHWVRQAPGKGLEWVAVMSHDGYTKYYSDSVRGQFTISRDNSKNTLYLQMNNLRPDDTAIYYCARGLTGLSVGFDYWGQGTLVTVSS VL: DIVLTQSASVSGSPGQSITISCTGTSSDVGGYNYVSWYQQHPGKAPKLMIYDVTTRPSGVSDRFSGSKSGNTASLTISGLQAEDEADYYCSSYSSGSTPALFGGGTQLTVL	OD	0.06

Query binder follows.
Challenge: Fill blank: measured OD of the binder TRL1216 (antibody, V domains shown) VH: QVQLVESGGGVVQPGGSLRVSCAASAFSFRDYGIHWVRQAPGKGLQWVAVISHDGGKKFYADSVRGRFTISRDNSENTLYLQMNSLRSDDTAVYYCARLVASCSGSTCTTQPAAFDIWGPGTLVTVSS VL: DIMLTQPPSVSVSPGQTARITCSGDALPKKYTYWYQQKSGQAPVLLIYEDRKRPSEIPERFSAFTSWTTATLTITGAQVRDEADYYCYSTDISGDIGVFGGGTKLTVL is ____.
Response given: 0.4
